tgt: T1, human BCMA with a His tag (ACROBiosystems, Catalog No.: BCA-H522y) (human)
T1 construct: Bought His-tagged recombinant protein; also called huBCMA-His; Recombinant human BCMA
T1 chain: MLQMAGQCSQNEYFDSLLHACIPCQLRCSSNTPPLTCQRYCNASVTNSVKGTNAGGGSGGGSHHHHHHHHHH
method_description: SPR, Biacore T200
Known Kd of a selection of binders
property_measured: Kd (nM)

binder	reported_measurement
SCT-Aa12(m/m) (antibody, V domains shown, Full IgG format: mouse IgG1 heavy chain constant region, mouse kappa light chain constant region) VH: QVQLQQSDAELVKPGASVKISCKVSGYTFTDYTIHWMKQRPEQGLEWIGYIFPSDGSTKYNEKFKGKATLTADKSSSTAYMQLNSLTSDDSAVYFCARWDYEGFDYWGQGTTLTVSS VL: DIVMTQSPATLSVTPGDRVSLSCRASQSISDYLNWYQQKSHESPRLLIKYASQSISGIPSRFSGSGSGSDFTLSINSVEPEDVGVYYCQNGHSFPPTFGSGTKLEIK	5.01
SCT-Aa16(h/h) (antibody, V domains shown, Full IgG format, chimeric: human IgG1 heavy chain constant region, human kappa light chain constant region) VH: EVQLQQSGPELVKPGASVKMSCKGSGYTFTNYIMHWVKQKPGQGLEWIGYIIPYNDNTKYNEKFKGKATLTSDKSSSTAYMELSSLTSEDSAVYYCATYEYDVGLDYWGQGTTLTVSS VL: DLQMTQTTSSLSASLGDRVTISCSARQGIVNYLNWYQQKPDGTVKLLIYNTSSLHSGVPSRFSGSGSGTDYSLTISNLEPEDIATYYCQQYSKLPWTFGGGTKLEIK	26.7
SCT-Aa05(m/m) (antibody, V domains shown, Full IgG format: mouse IgG1 heavy chain constant region, mouse kappa light chain constant region) VH: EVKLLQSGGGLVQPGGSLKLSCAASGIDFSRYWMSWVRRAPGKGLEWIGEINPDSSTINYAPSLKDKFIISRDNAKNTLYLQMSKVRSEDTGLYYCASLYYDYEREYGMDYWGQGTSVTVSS VL: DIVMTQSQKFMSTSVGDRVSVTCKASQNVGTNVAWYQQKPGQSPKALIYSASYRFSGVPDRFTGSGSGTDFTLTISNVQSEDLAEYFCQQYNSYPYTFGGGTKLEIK	4.91

These data points were gathered from patent US20210332145A1.
